Data origin: patent US20090148883A1

test system: BMDM; test: CSF-1-induced BMDM proliferation; format: cell-based; conditions: Mus musculus, data not shown, read-out: IC50 for inhibition of CSF-1-induced BMDM proliferation
property_label: IC50 (nM)
Please give a number only; it is taken to be in nM.

(Q) # IC50 lookup, item `CN(C)CC(=O)N1CCC(c2ccc(NC(=O)c3nc(C#N)c[nH]3)c(C3=CCCCC3)c2)CC1.Cl`
(A) 2.6

---

assay: Plasma compound levels in rats dosed 4 days, Examples 3 and 4; type: in vivo, rat; details: female, Sprague Dawley, rat, plasma, oral, 10 mg/kg, 10 mg/kg p.o. bid 4 days, 2 hrs after final dose; group mean; read-out: Compound, ng/ml, Mean (SEM)
property_label: concentration at 2 h (ng/mL)
Please give a number only; it is taken to be in ng/mL.

(Q) # concentration at 2 h lookup, item CONC(=O)c1cn(-c2ccc3c(c2)CCC3)c2nc(Nc3ccc(C4CCN(C)CC4)cc3)ncc2c1=O [COMPOUND 3]
(A) 2540

---

test: Plasma compound levels in rats dosed 4 days, Examples 3 and 4; format: in vivo, rat; conditions: rat, plasma, 50 mpk, dosed 4 days, 2 hours after last dose; individual animals; read-out: Plasma compound
property_label: concentration at 2 h (ng/mL)
Please give a number only; it is taken to be in ng/mL.

(Q) # concentration at 2 h lookup, item `CC1(C)CC=C(c2nc(C3CC(C)(C)OC(C)(C)C3)ccc2NC(=O)c2ncc(C#N)[nH]2)CC1`
(A) 5670

---

test: Plasma compound levels in rats dosed 4 days, Examples 3 and 4; format: in vivo, rat; conditions: rat, plasma, 10 mpk, dosed 4 days, 2 hours after last dose; group mean; read-out: Plasma compound, ng/ml, Mean
property_label: concentration at 2 h
Quote the value and follow it with the unit of measurement.

(Q) # concentration at 2 h lookup, item CC1(C)CC=C(c2nc(C3CC(C)(C)OC(C)(C)C3)ccc2NC(=O)c2ncc(C#N)[nH]2)CC1 [COMPOUND 4]
(A) 1410 ng/mL

---

assay: Plasma compound levels in rats dosed 4 days, Examples 3 and 4; type: in vivo, rat; conditions: rat, plasma, 10 mpk, dosed 4 days, 2 hours after last dose; individual animals; read-out: Plasma compound
property_label: concentration at 2 h (ng/mL)
Please give a number only; it is taken to be in ng/mL.

(Q) # concentration at 2 h lookup, item CC1(C)CC=C(c2nc(C3CC(C)(C)OC(C)(C)C3)ccc2NC(=O)c2ncc(C#N)[nH]2)CC1 [COMPOUND 4]
(A) 1070

---

experiment: Plasma compound levels in rats dosed 4 days, Examples 3 and 4; format: in vivo, rat; conditions: female, Sprague Dawley, rat, plasma, oral, 10 mg/kg, 10 mg/kg p.o. bid 4 days, 2 hrs after final dose; individual animals
property_label: concentration at 2 h
Quote the value and follow it with the unit of measurement.

(Q) # concentration at 2 h lookup, item CONC(=O)c1cn(-c2ccc3c(c2)CCC3)c2nc(Nc3ccc(C4CCN(C)CC4)cc3)ncc2c1=O [COMPOUND 3]
(A) 2730 ng/mL
